Measured values drawn from patent US20240041042A1 for this set.

Tested on: Alopecurus myosuroides (ALOMY)
Test: Pre-emergence herbicidal action against ALOMY
Format: in vivo
Conditions: 80 g/ha; scored visually after about 3 weeks; 100% = plants have died
assay-metric: Pre-emergence action against ALOMY (%)
One number for each entry, in %.

CCOC(=O)[C@@H](C)Oc1nn(-c2ncccc2F)c(-c2ccc(F)nc2)c1Cl [Example I-32] :: 90
COC(=O)COc1nn(-c2ncccc2F)c(-c2cncc(F)c2)c1Br [Example I-16] :: 100

For every item below, please supply its Pre-emergence action against ALOMY.
1. C[C@@H](Oc1nn(-c2ccccn2)c(-c2ccc(F)nc2)c1Cl)C(=O)NCC(=O)O [Example I-338]
2. COC(=O)CCOC(=O)C(C)Oc1nn(-c2ccccn2)c(-c2ccc(F)nc2)c1C(F)(F)F (centres unmarked) [Example I-293]

(A)
1. 100
2. 90

Required: Pre-emergence action against ALOMY, one value per molecule below.
1. O=C(O)COc1nn(-c2nc(F)ccc2F)c(-c2cncc(F)c2)c1C1CC1 [Example I-148]
2. O=C(COc1nn(-c2ccccn2)c(-c2ccc(F)nc2)c1Br)OCC1CCOC1 (centres unmarked) [Example I-90]
3. CC(NC(=O)[C@@H](C)Oc1nn(-c2ccccn2)c(-c2ccc(F)nc2)c1Cl)C(=O)O (some centres unmarked) [Example I-350]
4. C[C@H](NC(=O)COc1nn(-c2ccccn2)c(-c2cncc(F)c2)c1Br)C(=O)O [Example I-80]

(A)
[100, 90, 100, 100]
